tested on: Key Grass and Sedge Weeds as well as Grass Crops; test: Post-emergent Test II herbicidal activity (Table 16); assay type: in vivo; conditions: Cyperus esculentus, post-emergence, 336 h, yellow nutsedge (Cyperus esculentus), 70 g ai/ha, 14 d, read-out: Visual Growth Reduction (%) 14 Days After Application, CYPES
Attribute: pest or weed control at 70 g/ha

Solved cases (4 shown):
COC(=O)c1nc(-c2ccc3ccn(C)c3c2)c(F)c(N)c1Cl ... 0 to 29%
COC(=O)c1nc(-c2ccc3cc[nH]c3c2)c(F)c(N)c1Cl ... 0 to 29%
COC(=O)c1nc(-c2ccc(Cl)c3ccoc23)cc(N)c1Cl ... 30 to 44%
Nc1c(F)c(-c2ccc3[nH]ccc3c2)nc(C(=O)O)c1Cl ... 0 to 29%

Prompt line: Any idea what its pest or weed control at 70 g/ha is? The compound is "Nc1c(F)c(-c2ccc(Cl)c3occc23)nc(C(=O)O)c1Cl"
Response line: 0 to 29%

Prompt line: // same read-out, input: "COC(=O)c1nc(-c2ccc3cc[nH]c3c2)c(Cl)c(N)c1Cl"
Response line: 0 to 29%

Prompt line: How about "Cc1c(-c2ccc3cc[nH]c3c2)nc(C(=O)O)c(Cl)c1N" ?
Response line: 0 to 29%

Prompt line: What would you report for "Nc1c(F)c(-c2cc3[nH]ccc3cc2F)nc(C(=O)O)c1Cl" ?
Response line: 0 to 29%

Prompt line: Field entry: "COC(=O)c1nc(-c2ccc(Cl)c3cc[nH]c23)c(F)c(N)c1Cl"
Response line: 0 to 29%

Prompt line: And "COC(=O)c1nc(-c2ccc(Cl)c3[nH]ccc23)c(F)c(N)c1Cl" ?
Response line: 0 to 29%

Prompt line: Also need "Nc1cc(-c2ccc3cc[nH]c3c2F)nc(C(=O)O)c1Cl" , thanks.
Response line: 0 to 29%

###

Entries annotated with measured pest or weed control at 70 g/ha
system: Key Broadleaf Weed and Crop Species; assay: Post-emergent Test II herbicidal activity (Table 15); assay type: in vivo; settings: Abutilon theophrasti, post-emergence, 336 h, velvetleaf (Abutilon theophrasti), 70 g ai/ha, 14 d, read-out: Visual Growth Reduction (%) 14 Days After Application, ABUTH

Reference set, count: 8
Cc1c(-c2ccc3cc[nH]c3c2)nc(C(=O)O)c(Cl)c1N ... 0 to 29%
COC(=O)c1nc(-c2ccc3cc[nH]c3c2F)nc(N)c1OC ... 0 to 29%
Nc1c(F)c(-c2ccc3cc[nH]c3c2F)nc(C(=O)O)c1Cl ... 95 to 100%
COC(=O)c1nc(-c2ccc3cc[nH]c3c2F)c(F)c(N)c1Cl ... 95 to 100%
COC(=O)c1nc(-c2ccc3cc[nH]c3c2F)c(Cl)c(N)c1Cl ... 0 to 29%
COC(=O)c1nc(-c2ccc(Cl)c3occc23)nc(N)c1Cl ... 60 to 74%
COc1c(N)nc(-c2ccc3ccsc3c2)nc1C(=O)O ... 30 to 44%
COC(=O)c1nc(-c2ccc(Cl)c3cc[nH]c23)c(F)c(N)c1Cl ... 0 to 29%

Prompt line: Quick one: pest or weed control at 70 g/ha of "COC(=O)c1nc(-c2ccc(Cl)c3ccoc23)cc(N)c1Cl" ?
Response line: 75 to 84%

###

system: Wheat and Barley and test plant species; assay: Post-emergent Test III, herbicidal activity in wheat and barley (Table 17; visual injury, GR20/GR50/GR80/GR90); format: in vivo; conditions: KCHSC; dose for 80 percent growth reduction; probit analysis; 21 d
quantity.kind: GR80, KCHSC (g ai/ha)
Respond numerically; units are g ai/ha and should not be typed.

Here are 3 compounds together with their reported answers.
Nc1c(F)c(-c2ccc3cc[nH]c3c2F)nc(C(=O)O)c1Cl [Compound 1.16] ... 20
COC(=O)c1nc(-c2ccc(Cl)c3ccoc23)c(F)c(N)c1Cl [Compound 2.24] ... 33
COC(=O)c1nc(-c2ccc3cc[nH]c3c2F)c(F)c(N)c1Cl [Compound 1.15] ... 28

Kindly review the next compound as well.
Prompt line: Please look up its GR80, KCHSC: COC(=O)c1nc(-c2ccc3cc[nH]c3c2F)cc(N)c1Cl [Compound 1.23]
Response line: 110

###

System: Wheat and Barley and test plant species
Assay: Post-emergent Test III, herbicidal activity in wheat and barley (Table 17; visual injury, GR20/GR50/GR80/GR90)
Format: in vivo
Settings: CIRAR; 17.5 g ai/ha; post-emergent; 21 d
Method: Post-emergent Test III. […] A weighed amount, determined by the highest rate to be tested, of each test compound was placed in a 25 mL glass vial and was dissolved in 4 mL of a 97:3 v/v mixture of acetone and DMSO to obtain concentrated stock solutions. […]
quantity.kind: Visual Growth Reduction (%) 21 Days After Application, CIRAR

COC(=O)c1nc(-c2ccc(Cl)c3ccoc23)c(F)c(N)c1Cl ... D (60-74)
Nc1c(F)c(-c2ccc3cc[nH]c3c2F)nc(C(=O)O)c1Cl ... D (60-74)

###

test system: Key Broadleaf Weed and Crop Species; assay: Post-emergent Test II herbicidal activity (Table 15); assay type: in vivo; settings: Chenopodium album, post-emergence, 336 h, lambsquarters (Chenopodium album), 140 g ai/ha, 14 d, read-out: Visual Growth Reduction (%) 14 Days After Application, CHEAL
quantity.kind: pest or weed control at 140 g/ha

Here are 4 compounds together with their reported answers.
COC(=O)c1nc(-c2cccc3[nH]ccc23)c(F)c(N)c1Cl ... 0 to 29%
COc1c(N)nc(-c2ccc(Cl)c3occc23)nc1C(=O)O ... 95 to 100%
COC(=O)c1nc(-c2ccc3occc3c2)cc(N)c1Cl ... 95 to 100%
COC(=O)c1nc(-c2ccc3cn[nH]c3c2)cc(N)c1Cl ... 85 to 94%

Prompt line: Name the reported pest or weed control at 140 g/ha value associated with the compound "COc1c(C(=O)O)nc(-c2ccc3cc[nH]c3c2F)c(F)c1N"
Response line: 95 to 100%

###

test system: Key Broadleaf Weed and Crop Species; experiment: Post-emergent Test II herbicidal activity (Table 15); format: in vivo; settings: Euphorbia heterophylla, post-emergence, 336 h, wild poinsettia (Euphorbia heterophylla), 35 g ai/ha, 14 d, read-out: Visual Growth Reduction (%) 14 Days After Application, EPHHL
quantity.kind: pest or weed control at 35 g/ha

COC(=O)c1nc(-c2cc3[nH]ccc3cc2F)cc(N)c1Cl [Compound 1.25] ... 0 to 29%
COC(=O)c1nc(-c2ccc3cc[nH]c3c2)nc(N)c1Cl [Compound 1.30] ... 0 to 29%

// switching to the query compound
Prompt line: I would be grateful if you could share the reported pest or weed control at 35 g/ha for COC(=O)c1nc(-c2ccc(Cl)c3occc23)nc(N)c1Cl [Compound 2.20] .
Response line: 0 to 29%

###

test system: Key Grass and Sedge Weeds as well as Grass Crops; assay: Post-emergent Test II herbicidal activity (Table 16); assay type: in vivo; conditions: Triticum aestivum, post-emergence, 336 h, wheat, spring (Triticum aestivum), 70 g ai/ha, 14 d, read-out: Visual Growth Reduction (%) 14 Days After Application, TRZAS
Reported pest or weed control at 70 g/ha is given for each of the following molecules.

The following molecules have reported results that may help.
COC(=O)c1nc(-c2ccc(Cl)c3ccoc23)nc(N)c1OC ... 0 to 29%
COC(=O)c1nc(-c2ccc(Cl)c3ccoc23)c(F)c(N)c1Cl ... 0 to 29%
COC(=O)c1nc(-c2cc3ccoc3cc2F)cc(N)c1Cl ... 30 to 44%
COC(=O)c1nc(-c2ccc(Cl)c3occc23)cc(N)c1Cl ... 0 to 29%

As a next step, examine the molecule that follows.
Prompt line: Enter reported pest or weed control at 70 g/ha observed with Key Grass and Sedge Weeds as well as Grass Crops for "COC(=O)c1nc(-c2ccc3sccc3c2)cc(N)c1Cl"
Response line: 0 to 29%

###

tested on: Key Broadleaf Weed and Crop Species; test: Post-emergent Test II herbicidal activity (Table 15); type: in vivo; conditions: Amaranthus retroflexus, post-emergence, 336 h, redroot pigweed (Amaranthus retroflexus), 35 g ai/ha, 14 d, read-out: Visual Growth Reduction (%) 14 Days After Application, AMARE
quantity.kind: pest or weed control at 35 g/ha

Nc1c(F)c(-c2ccc3cc[nH]c3c2)nc(C(=O)O)c1Cl ... 95 to 100%

Prompt line: Value wanted: pest or weed control at 35 g/ha (Key Broadleaf Weed and Crop Species) of entry "COC(=O)c1nc(-c2ccc3ccsc3c2)c(C)c(N)c1Cl"
Response line: 60 to 74%

Prompt line: Can you handle "COC(=O)c1nc(-c2ccc3scnc3c2)c(F)c(N)c1Cl" next?
Response line: 85 to 94%
